Test system: Moraxella catarrhalis
assayText: MIC against Gram-negative bacteria: Moraxella catarrhalis
Type: cell-based
conditionLabel: Moraxella catarrhalis; 96-well plate, 5×10^5 CFU/mL, 37° C., 10 h
measurementLabel: MIC (μg/mL) M. catarrhalis
Express the reported value numerically, then name its unit.

Here's what some known entries look like.
PRT77 (RSGRCTPGVCKNGGTCVNLLVGGFKCDCPSGDFEKPYCQ; listed as Homo sapiens)	12.5 µg/mL
PRT39 (PVRDCSRNNGGCTRNFKCVSDRQVDSSGCVCPEELKPMKDGSGCY; listed as Homo sapiens)	12.5 µg/mL
PRT67 (EIDLCYSDPCGANGRCRSREGGYTCECFEDFTGEHCE; listed as Homo sapiens)	25 µg/mL
PRT82 (CDCYPTGSLSRVCDPEDGQCPCKPGVIGRQCDRCDNPFAEVTTNGCEV; listed as Homo sapiens)	100 µg/mL

Please look at the following substance next.
So what's the measured MIC (μg/mL) M. catarrhalis for this one? PRT135 (PGHCSSYGSICHNGGKCVEKHNGYLCDCTNSPYEGPFCK; listed as Homo sapiens)
50 µg/mL
